Provenance of the data: patent US20090149339A1

targetOrSystem: GST-DLG1 PDZ domain fusion protein (human homolog of Drosophila discs large protein AA275-477; PDZ domains 1-2 of 3) (human) [GST: P08515]
Sequence (P08515 1-218, tags or fused parts left off): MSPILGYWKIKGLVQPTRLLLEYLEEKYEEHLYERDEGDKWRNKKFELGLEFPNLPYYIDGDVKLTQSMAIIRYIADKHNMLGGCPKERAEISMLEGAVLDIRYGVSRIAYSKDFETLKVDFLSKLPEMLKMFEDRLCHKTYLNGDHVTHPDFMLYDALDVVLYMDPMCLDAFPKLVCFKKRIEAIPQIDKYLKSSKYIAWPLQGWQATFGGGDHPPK
test: G assay, peptide titrated on immobilized GST-PDZ, saturation fit (apparent affinity)
Ends that are not written are not given here. * marks the point of attachment. Biotin = O=C1N[C@H]2[C@H](CS[C@H]2CCCCC(=O)*)N1
observationType: Kd (µM)
Report as a plain number; the unit µM is understood.

The measured Kd associated with Biotin-KDITSDSENSNFRNEIQSLV [CD95 (Apo-1/Fas) C-terminal PL peptide AA13L, biotinylated] reads 54
